Reference for the values: PubChem BioAssay (NCI)

TGI for assorted compounds
# Tested on: DLD-1 colon
# EXPERIMENT: NCI tumour cell line growth inhibition, 48 h

O=C1c2ccccc2C(=O)C1(Cl)C1(S(=O)(=O)O)c2ccccc2-c2ccccc21: > 100 µM
Cc1ccc(S(=O)(=O)Oc2cc(-c3ccccc3)nc3ccccc23)cc1: > 46.8 µM

Query: Request - read-out TGI | tested on DLD-1 colon | compound O=S(O)CCCCSSCC(O)C(O)CSSCCCCS(=O)O (stereo not given)
Result: > 100 µM

====

# System: M14 melanoma
# EXPERIMENT: NCI tumour cell line growth inhibition, 48 h
READOUT_TYPE: GI50

Here are 4 molecules together with their reported answers.
O=C(Nc1ccc(OS(=O)(=O)c2ccccc2)cc1)C12CC3CC(CC(C3)C1)C2: 7.2 µM
Cn1c(=O)c2c(nc(Nc3cc(=O)[nH]c(=O)[nH]3)n2Cc2ccccc2)n(C)c1=O: > 100 µM
Clc1coc2nc3ccccc3c(Nc3ccc4c(c3)OCO4)c12: 0.699 µM
COc1cc(Nc2cn[nH]c2-c2ccc(Cl)cc2)cc(OC)c1OC: 2.5 µM

Query: Tell me the measured GI50 of "NCCCNc1nc2ccccc2c2c(=O)c3cc(OC(F)(F)F)ccc3sc12" , please.
Result: 1.67 µM
